- assay info: chemical genetic growth profiling, strain panel (AID 1159580);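 also: tested at 20 µM; growth read once vehicle control cultures reached saturation at 30 °C; 1 = growth at the plate median or of vehicle wells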
- assay conditions: S. cerevisiae deletion strains, growth OD, locus YDR502C, strain sam2, active compounds read low
Hit rate of the full screen: of about 5,500 compounds, about 2,000 (36%) were called active. Roughly 18% stayed inconclusive and do not appear here. The list shows a part of the results.
measurement kind: normalized growth
One number for each entry.

// for each compound in input: emit normalized growth
1. CC1(C)C(=O)C=CC2(C)C3CCC4(C)C(c5ccoc5)CC5OC54C3C(O)CC12 (stereo not drawn)
2. CC(C)=CCC[C@](C)(O)C1CC=C(C)CC1 (stereo partly drawn)
3. NCCNC(=O)c1ccc(Cl)cc1

Result:
1: 1.01; 2: 0.973; 3: 1

----------
- assay info: chemical genetic growth profiling, strain panel (AID 1159580)
- assay conditions: S. cerevisiae deletion strains, growth OD, locus YKL160W, strain elf1, active compounds read low
Out of some 5,500 compounds screened, about 2,000 (36%) were called active. Roughly 18% stayed inconclusive and do not appear here. This is one part of the list.
hey, just use YES if measured normalized growth is less than 0.9, otherwise NO

> print(dat)
                                   molecule  group
1  O=c1[nH]c(=O)n(C2C[C@@H](O)[C@@H](CO)O2)cc1F (some centres undefined)     NO
2  COc1ccc(C(Cl)=C(c2ccc(OC)cc2)c2ccc(OC)cc2)cc1     NO
3  Cc1c(O)c(O)cc2c1CC=C1[C@@]2(C)CC[C@@]2(C)C3C[C@](C)(C(=O)O)CC[C@]3(C)CC[C@]12C (some centres undefined)    YES
4  COc1ccccc1OCCNCC(O)COc1cccc2[nH]c3ccccc3c12 (centres undefined)     NO
5  C=CC(C1=CC(=O)C(OC)=CC1=O)c1ccccc1 (centres undefined)    YES

Next molecule, please.
Task: # TODO verify normalized growth < 0.9 strictly for this molecule: `CCN(CC)CCOc1ccc2c(c1)C(=O)c1cc(OCCN(CC)CC)ccc1-2`
Result: NO

----------
- assay info: chemical genetic growth profiling, strain panel (AID 1159580)
- assay conditions: S. cerevisiae deletion strains, growth OD, locus YCL061C, strain MRC1, active compounds read low
The whole screen tested about 5,500 compounds, of which about 2,000 (36%) were called active. Roughly 18% stayed inconclusive and do not appear here. The list shows a part of the results.
Would you kindly list normalized growth for each of these compounds?
Answers are plain numbers.

compound	normalized growth
CC(=O)O[C@@H]1C[C@@]2(C)[C@H](c3ccoc3)C[C@H]3O[C@]32[C@]2(C)C(=O)C(O)=C3C(C)(C)C(=O)C=C[C@]3(C)C12 (stereo not given in full)	0.96
CCOC(=O)c1oc2c(OC)c(O)cc(O)c2c(=O)c1-c1cc(OC)c(OC)c(OC)c1	0.966

// for each compound in input: emit normalized growth
1. Nc1ccc([As](=O)(O)O)cc1
2. Cc1ccc(/C(=C\CN2CCCC2)c2ccccn2)cc1
3. Nc1ncn([C@@H]2O[C@H](CO)[C@@H](O)[C@H]2O)c(=O)n1

Result:
1. 1
2. 1.02
3. 0.989

----------
Would you kindly list normalized growth for each of these compounds?
- assay info: chemical genetic growth profiling, strain panel (AID 1159580)
- assay conditions: S. cerevisiae deletion strains, growth OD, locus YLR384C, strain iki3, active compounds read low
The campaign covered roughly 5,500 compounds. About 2,000 (36%) were called active. Inconclusive results (about 18%) are left out. The list shows a part of the results.
Answers are plain numbers.

The examples below pair each entry with its known result.
> print(dat)
                                   compound  assay.result
1  COc1ccccc1OCCNCC(O)COc1cccc2[nH]c3ccccc3c12 (stereo not given)          1.03
2  CCCC1O[C@@H]2CC3C4CCC5=CC(=O)C=CC5(C)C4[C@@H](O)CC3(C)[C@]2(C(=O)CO)O1 (stereo not given in full)          1.01

// for each compound in input: emit normalized growth
1. OC[C@@H]1CCCN2CCCC[C@H]12
2. CCN(CC)CCNC(=O)c1cc(S(C)(=O)=O)ccc1OC
3. Nc1ncn([C@@H]2O[C@H](CO)[C@@H](O)[C@H]2O)c(=O)n1

Result:
[1.03, 0.971, 0.974]

----------
Would you kindly list normalized growth for each of these molecules?
- assay info: chemical genetic growth profiling, strain panel (AID 1159580);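 also: tested at 20 µM; growth read once vehicle control cultures reached saturation at 30 °C; 1 = growth at the plate median or of vehicle wells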
- assay conditions: S. cerevisiae deletion strains, growth OD, locus YKL160W, strain elf1, active compounds read low
In all, about 5,500 compounds went through this assay and about 2,000 (36%) were called active. Roughly 18% stayed inconclusive and do not appear here. This is one part of the list.

> print(dat)
                                   molecule      assay.result
1                                  O=C(O)CF  0.988 (inactive)
2  C=CC(C)(O)CC/C=C(\C)CCC=C(C)C (stereo not drawn)  0.903 (inactive)

Field normalized growth (entry CN1C(CC(=O)c2ccccc2)CCCC1CC(O)c1ccccc1 (stereo not drawn) ) reads 1 (inactive)

----------
- assay info: chemical genetic growth profiling, strain panel (AID 1159580);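 also: tested at 20 µM; growth read once vehicle control cultures reached saturation at 30 °C; 1 = growth at the plate median or of vehicle wells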
- assay conditions: S. cerevisiae deletion strains, growth OD, locus YLR370C, strain arc18
The whole screen tested about 5,500 compounds, of which about 2,000 (36%) were called active. Roughly 18% stayed inconclusive and do not appear here. Cut-off read from the data, not from the text of the source: active = normalized growth mostly below about 0.91 (no sharp cut-off); inconclusive = no clear call, values can overlap the other calls; inactive = mostly above about 0.92. Some of the results follow.
Choose one outcome from this list and give only that: 1 (active), -1 (inactive)

Task: Please let me know the test result on file for `O=C(O)c1ccccc1Nc1cccc(C(F)(F)F)c1` .
Result: 1

Task: Please let me know the test result on file for `CCN(CC)CCNC(=O)c1cc(S(C)(=O)=O)ccc1OC` .
Result: -1

Task: Please let me know the test result on file for `Nc1ncn([C@@H]2O[C@H](CO)[C@@H](O)[C@H]2O)c(=O)n1` .
Result: -1

Task: Please let me know the test result on file for COc1ccccc1OCCNCC(O)COc1cccc2[nH]c3ccccc3c12 (stereo unspecified) .
Result: -1

Task: Please let me know the test result on file for C=CC(C1=CC(=O)C(OC)=CC1=O)c1ccc(O)cc1 (stereo unspecified) .
Result: -1

Task: Please let me know the test result on file for `Nc1ncnc2c1ncn2[C@@H]1O[C@H](CO)[C@@H](O)[C@H]1O` .
Result: -1

Task: Please let me know the test result on file for `Oc1c(I)cc(Cl)c2cccnc12` .
Result: 1

Task: Please let me know the test result on file for CC1(C)C(C(Cl)Cl)C2(Cl)C(Cl)C(Cl)C1(Cl)C2(Cl)Cl (stereo unspecified) .
Result: -1

Task: Please let me know the test result on file for `Cc1ccc(/C(=C\CN2CCCC2)c2ccccn2)cc1` .
Result: -1

Task: Please let me know the test result on file for Nc1ncnc2c1ncn2C1C[C@H](O)[C@@H](CO)O1 (stereo partly specified) .
Result: -1

Task: Please let me know the test result on file for `COc1cc(OC)c2c(=O)c(-c3ccccc3)c(C)oc2c1OC` .
Result: -1

Task: Please let me know the test result on file for C=C(NC(=O)C(=C)NC(=O)c1csc(C2=NC3c4csc(n4)C4NC(=O)c5csc(n5)C(C(C)(O)C(C)O)NC(=O)C5CSC(=N5)C(=CC)NC(=O)C(C(C)O)NC(=O)c5csc(n5)C3(CC2)NC(=O)C(C)NC(=O)C(=C)NC(=O)C(C)NC(=O)C(C(C)CC)NC2C=Cc3c(C(C)O)cc(nc3C2O)C(=O)OC4C)n1)C(N)=O (stereo unspecified) .
Result: -1

Task: Please let me know the test result on file for CC1(C)C(=O)C=C[C@@]2(C)C1=C(O)C(=O)[C@]1(C)C2CC[C@@]2(C)[C@H](c3ccoc3)C[C@H]3O[C@]321 (stereo partly specified) .
Result: -1

Task: Please let me know the test result on file for `CCOC(=O)c1oc2c(OC)c(O)cc(O)c2c(=O)c1-c1cc(OC)c(OC)c(OC)c1` .
Result: -1

Task: Please let me know the test result on file for C=CC(C)(O)CC/C=C(\C)CCC=C(C)C (stereo unspecified) .
Result: -1

Task: Please let me know the test result on file for `O=C(O)c1ccccc1Nc1ccccc1` .
Result: -1

Task: Please let me know the test result on file for `Oc1c(Cl)cc(Cl)c2cccnc12` .
Result: 1

Task: Please let me know the test result on file for NC(=NCCC[C@H](N)C(=O)O)NC(CCC(=O)O)C(=O)O (stereo partly specified) .
Result: -1

Task: Please let me know the test result on file for `CS(=O)(=O)CCCCN=C=S` .
Result: 1

----------
- assay info: chemical genetic growth profiling, strain panel (AID 1159580);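 also: tested at 20 µM; growth read once vehicle control cultures reached saturation at 30 °C; 1 = growth at the plate median or of vehicle wells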
- assay conditions: S. cerevisiae deletion strains, growth OD, locus YER123W, strain YCK3
In all, about 5,500 compounds went through this assay and about 2,000 (36%) were called active. Not shown: some 18% with an inconclusive outcome. No stated cut-off is given here; in the data, active means normalized growth mostly below about 0.91 (no sharp cut-off); inconclusive means no clear call, values can overlap the other calls; inactive means mostly above about 0.92. The list shows a part of the results.
Choose one outcome from this list and give only that: active, inactive

> print(dat)
                                   compound     group
1  CC(=O)c1sc(SCCS(=O)(=O)c2ccc(C)cc2)c2c1CC(C)(C)CC2=O  inactive
2              O=[N+]([O-])/C=C/c1ccc(F)cc1    active
3   CCCc1c(C(=O)Sc2ccccn2)cnn1-c1ccc(Cl)cc1  inactive
4  OC(CNCc1ccc(Cl)cc1)CO/N=C\C1=C(Cl)c2cc(Cl)ccc2OC1 (stereo not given)  inactive
5  O=C(c1ccc2ccccc2c1)N1CCN(c2ccnc3cc(Cl)ccc23)CC1  inactive
6       CC(C)c1ccc(NC(=S)NC(=O)c2ccccc2)cc1  inactive

Task: Please let me know the test result on file for `O=C(NC(=S)Nc1cccc(C(F)(F)F)c1)c1ccc2nonc2c1` .
Result: inactive

Task: Please let me know the test result on file for `O=[N+]([O-])/C=C/c1ccsc1` .
Result: active

Task: Please let me know the test result on file for O=C1CSC(c2cccnc2)N1c1ccc(Cl)cc1Cl (stereo not given) .
Result: inactive

Task: Please let me know the test result on file for CC(C)c1ccc(NCC(O)CSc2ccccc2)cc1 (stereo not given) .
Result: inactive

Task: Please let me know the test result on file for `S=C(N/N=C\c1ccc(Cl)cc1)N/N=C\c1ccc(Cl)cc1` .
Result: active

Task: Please let me know the test result on file for `O=C(Nc1ccc(C(F)(F)F)cc1)N1CCN(c2ccnc3cc(Cl)ccc23)CC1` .
Result: inactive

Task: Please let me know the test result on file for `O=C(NCCSCc1cccc(C(F)(F)F)c1)Nc1cccc(C(F)(F)F)c1` .
Result: inactive

Task: Please let me know the test result on file for `N#CC(C#N)=C/C=C(/Sc1nc2ccccc2s1)c1ccc(Br)cc1` .
Result: active

Task: Please let me know the test result on file for `CSc1cc(-c2ccncc2)nc(-c2cccs2)c1` .
Result: inactive

Task: Please let me know the test result on file for `Cc1cc(Cl)ccc1NC(=S)NNC(=S)Nc1ccc(F)cc1` .
Result: inactive

Task: Please let me know the test result on file for `CCCc1c(C(=O)NC2Cc3ccccc3C2)cnn1-c1ccccc1` .
Result: inactive

Task: Please let me know the test result on file for `C=CCOc1ccc(/C=C/[N+](=O)[O-])cc1` .
Result: active

Task: Please let me know the test result on file for `C/C(=C\c1ccc2c(c1)OCO2)[N+](=O)[O-]` .
Result: active

Task: Please let me know the test result on file for `COc1ccc(C(=O)CSC2=NCCc3ccccc32)cc1` .
Result: inactive

Task: Please let me know the test result on file for `N#CCC(=O)NNC(=S)Nc1ccc(Cl)c(Cl)c1` .
Result: inactive

Task: Please let me know the test result on file for `NC(=Nc1ccc(F)cc1)SCc1c(Cl)cccc1Cl` .
Result: inactive

Task: Please let me know the test result on file for `CCOC(=O)/C(=N/Nc1c(Cl)cccc1Cl)c1csc(N)n1` .
Result: inactive

Task: Please let me know the test result on file for `O=C(Nc1ccc(N2CCOCC2)cc1)c1ccc(-n2cccn2)cc1` .
Result: inactive

Task: Please let me know the test result on file for `O=C(NC(=O)c1c(F)cccc1Cl)OCc1ccc(Cl)cc1Cl` .
Result: inactive
